# System: male rats
# Assay Name: Plasma metabolite profiling (GC-MS, LC-MS, SPE-LC-MS) in male rats dosed once daily over 28 days (OECD 407)
# Format: in vivo, rat
# Condition Parameters: m14; high dose; Table 10a
# Experimental: Each dose group in the studies consisted of five rats per sex. Additional groups of each 5 male and female animals served as controls. […] All animals of the animal population were kept under the same constant temperature (20-24±3° C.) and the same constant humidity (30-70%). The animals of the animal population were fed ad libitum. […] Steroids and their metabolites were measured by online SPE-LC-MS (Solid phase extraction-LC-MS). […]
Structures can show the parent of a compound that is named as a salt. Marks after values point to notes of the source that are not given here.
Parameter Measured: 3-O-Methylsphingosine (d18:1)

Recorded 3-O-Methylsphingosine (d18:1), per entry:
CNCCC(Oc1ccc(C(F)(F)F)cc1)c1ccccc1 (stereo not shown) [Fluoxetine hydrochloride]: 1.43^
Cn1cc[nH]c1=S [Methimazole]: 3.98 *
Cc1cccc(C)c1N(Cn1cccn1)C(=O)CCl [Metazachlor]: 4.31 *

Switching to the query record.
Need 3-O-Methylsphingosine (d18:1), item CC(C)C(=O)Nc1ccc([N+](=O)[O-])c(C(F)(F)F)c1 [Flutamide]
0.78

* * *

# System: male rats
# Assay Name: Plasma metabolite profiling (GC-MS, LC-MS, SPE-LC-MS) in male rats dosed once daily over 28 days (OECD 407)
# Type: in vivo, rat
# Condition Parameters: m7; high dose; Table 14b
Where a name gives a salt, the structure may show the parent alone.
The reader will find reported Choline plasmalogen No 02 values listed item by item below.
Form rule: numeric answer, no unit written next to it.

Recorded Choline plasmalogen No 02, per entry:
C#C[C@]1(O)CC[C@H]2[C@@H]3CCc4cc(O)ccc4[C@H]3CC[C@@]21C [17-alpha-Ethynylestradiol]: 0.28
O=C(c1ccc(OCCN2CCCCC2)cc1)c1c(-c2ccc(O)cc2)sc2cc(O)ccc12 [Raloxifene Hydrochloride]: 0.67
C[C@]12C=CC3=C4CCC(=O)C=C4CCC3C1CC[C@@H]2O (stereo partly drawn) [Trenbolone]: 0.44
C[C@]12CCC(=O)C=C1CC[C@@H]1[C@@H]2CC[C@@]2(C)[C@H]1CC[C@]2(C)O [17-alpha-Methyltestosterone]: 0.55
OCCNCCO [Diethanolamine]: 0.89

Switching to the query record.
Need Choline plasmalogen No 02, item CC/C(=C(\c1ccccc1)c1ccc(OCCN(C)C)cc1)c1ccccc1 [Tamoxifen]
0.59

* * *

# Test system: male rats
# Assay Name: Plasma metabolite profiling (GC-MS, LC-MS, SPE-LC-MS) in male rats dosed once daily over 28 days (OECD 407)
# Type: in vivo, rat
# Condition Parameters: male rats, plasma, high dose, day 28
Marks after values point to notes of the source that are not given here.
The reader will find reported alpha-Tocopherol, ratio versus control values listed item by item below.

Recorded alpha-Tocopherol, ratio versus control, per entry:
CC(=O)O[C@]1(C(C)=O)CC[C@H]2[C@@H]3C=C(Cl)C4=CC(=O)[C@@H]5C[C@@H]5[C@]4(C)[C@H]3CC[C@@]21C [Cyproteron Acetate]: 1.44 *
Cn1cc[nH]c1=S: 2.04 *

What alpha-Tocopherol, ratio versus control appears in the records for this compound with male rats? C[C@@H]1CC2=CC(=O)CC[C@@H]2[C@H]2CC[C@@]3(C)[C@@H](CC[C@]3(C)O)[C@@H]21
0.64 *

What alpha-Tocopherol, ratio versus control appears in the records for this compound with male rats? CCNC(=O)[C@@H]1CCCN1C(=O)[C@H](CCCNC(=N)N)NC(=O)[C@H](CC(C)C)NC(=O)[C@@H](COC(C)(C)C)NC(=O)[C@H](Cc1ccc(O)cc1)NC(=O)[C@H](CO)NC(=O)[C@H](Cc1c[nH]c2ccccc12)NC(=O)[C@H](Cc1cnc[nH]1)NC(=O)[C@@H]1CCC(=O)N1 [Buserelin acetate a.c., Buserelin acetate]
1.03^

What alpha-Tocopherol, ratio versus control appears in the records for this compound with male rats? O=P1(NCCCl)OCCCN1CCCl (centres unmarked) [Ifosfamide]
0.95
